Assay: logP by reversed-phase HPLC (EEC Directive 79/831 Annex V.A8)
Assay type: physicochemical
Settings: HPLC C18, 40° C., 0.1% aqueous formic acid / acetonitrile gradient
measurementKind: LogP

Would you please look over these solved cases?
substancesmiles=COCCOCC(=O)Nc1nc(CON=C(c2ccc(Br)s2)n2nnnc2C)cs1 result=2.94
substancesmiles=Cc1nnnn1C(=NOCc1csc(NC(=O)NC2CCCCC2)n1)c1ccsc1 result=2.92

Okay, next one:
Problem: Which LogP value is on record for `Cc1ccc(C(=NOCc2csc(NC(=O)c3ccccc3)n2)n2nnnc2C)o1` ?
Result: 2.96

---

Here the recorded LogP is given for each entry.
Experiment: logP by reversed-phase HPLC (EEC Directive 79/831 Annex V.A8)
Assay type: physicochemical
Conditions: HPLC C18, 40° C., 0.1% aqueous formic acid / acetonitrile gradient
Form rule: numeric answer, no unit written next to it.

Problem: Could you tell me which LogP is on file for Cc1nnnn1C(=NOCc1cccc(NC(=O)C(C)(C)C)n1)c1ccsc1 [Compound 37] ?
Result: 3

Problem: What does the record list as LogP for CCc1nnnn1C(=NOCc1csc(NC(=O)C(C)C)n1)c1ccsc1 [Compound 43] ?
Result: 3.04

Problem: May I ask what LogP has been recorded for Cc1nnnn1C(=NOCc1csc(NC(=O)C2CC2)n1)c1cc(-c2ccccc2)c(Cl)s1 [Compound 77] ?
Result: 4.03
